Molecular target: Cellular tumor antigen p53 (Homo sapiens) (UniProt P04637)
Sequence (P04637 whole entry, looked up): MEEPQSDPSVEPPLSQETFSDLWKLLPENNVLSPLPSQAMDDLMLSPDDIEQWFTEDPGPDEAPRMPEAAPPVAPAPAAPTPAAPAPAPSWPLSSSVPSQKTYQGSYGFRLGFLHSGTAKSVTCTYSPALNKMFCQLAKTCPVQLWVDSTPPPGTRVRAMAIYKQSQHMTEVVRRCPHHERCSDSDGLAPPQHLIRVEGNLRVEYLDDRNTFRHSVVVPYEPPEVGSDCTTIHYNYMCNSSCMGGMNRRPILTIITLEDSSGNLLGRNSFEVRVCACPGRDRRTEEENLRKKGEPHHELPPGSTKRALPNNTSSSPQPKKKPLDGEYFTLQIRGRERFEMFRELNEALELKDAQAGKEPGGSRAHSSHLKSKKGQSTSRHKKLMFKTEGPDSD
Test: TOX21_p53_BLA_p4_ratio: Tox21 HCT-116 p53 Agonism Beta-lactamase Assay, Ratio, Phase 4 (AID 2283601)
Records with an inconclusive call do not appear. Activity calls are given as the source filed them. Rule for the calls: active = hit-call score of the fitted dose curve at least 0.9, where 1 is the maximum; inconclusive = response in the unintended direction; inactive = score below 0.9.
Classes to choose from: yes (1) for active, no (0) for inactive

[
  {
    "COMPOUND STRUCTURE STRING": "CCCCCCCCCCCCCCCCCCNC(=O)OC1CCN(C(=O)OC[C@H](COC(=O)N(Cc2cccc[n+]2CC)C(=O)c2ccccc2OC)OC)CC1",
    "ASSIGNED LABEL": "yes (1)"
  },
  {
    "COMPOUND STRUCTURE STRING": "O=C1c2c(O)ccc([N+](=O)[O-])c2C(=O)c2c([N+](=O)[O-])ccc(O)c21",
    "ASSIGNED LABEL": "yes (1)"
  },
  {
    "COMPOUND STRUCTURE STRING": "O=C(CCCN1CCC(C(=O)c2ccc(F)cc2)CC1)c1ccc(F)cc1",
    "ASSIGNED LABEL": "no (0)"
  },
  {
    "COMPOUND STRUCTURE STRING": "CN1C(C(=O)Nc2ccccn2)=C(O)c2ccccc2S1(=O)=O",
    "ASSIGNED LABEL": "no (0)"
  },
  {
    "COMPOUND STRUCTURE STRING": "COc1cc([C@H]2Oc3cc([C@H]4Oc5cc(O)cc(O)c5C(=O)[C@@H]4O)ccc3O[C@@H]2CO)ccc1O",
    "ASSIGNED LABEL": "yes (1)"
  },
  {
    "COMPOUND STRUCTURE STRING": "Oc1cccc2cc3cccc(O)c3c(O)c12",
    "ASSIGNED LABEL": "no (0)"
  },
  {
    "COMPOUND STRUCTURE STRING": "COc1c(C)c2c(c(O)c1C/C=C(\\C)CCC(=O)OCCN1CCOCC1)C(=O)OC2",
    "ASSIGNED LABEL": "yes (1)"
  }
]

Next up:
Query block: Can you look up the reported call for CCCCCCCCCCCCCCCC(=O)O[C@@H]1[C@@H](O)[C@@H](O)[C@@H]([C@H](NC(=O)[C@@H]2C[C@@H](CCC)CN2C)[C@H](C)Cl)O[C@@H]1SC for me?
Result block: no (0)

###

Target: Cellular tumor antigen p53 (Homo sapiens)
Assay: TOX21_p53_BLA_p2_ratio: Tox21 HCT-116 p53 Agonism Beta-lactamase Assay, Ratio, Phase 2 (AID 2283592)
Results filed as inconclusive are left out. Calls of active or inactive are those of the source. The calls were made as follows: active = hit-call score of the fitted dose curve at least 0.9, where 1 is the maximum; inconclusive = response in the unintended direction; inactive = score below 0.9.
Classes to choose from: t (active), f (inactive)

// known answers, use as guide
[
  {
    "MOLECULE": "NCCCNCCSP(=O)(O)O",
    "ASSIGNED LABEL": "f"
  },
  {
    "MOLECULE": "c1ccc(SSc2ccccc2)cc1",
    "ASSIGNED LABEL": "f"
  },
  {
    "MOLECULE": "CC1(N)CCC(C(C)(C)N)CC1 (stereo unspecified)",
    "ASSIGNED LABEL": "f"
  },
  {
    "MOLECULE": "N=C(N=C(N)N)N1CCOCC1",
    "ASSIGNED LABEL": "f"
  },
  {
    "MOLECULE": "C=CC(=O)OCCCCCCCC",
    "ASSIGNED LABEL": "f"
  }
]

Query block: Can you look up the reported call for Clc1ccc2cc3ccccc3cc2c1 for me?
Result block: f

###

Read-out: Interleukin-8 (IL8), CXCL8 (gene 3576)
Test: BSK_hDFCGF_IL8: BioMAP Diversity Plus: hDFCGF Assay for Interleukin-8 (IL8) Biomarker Activity (AID 2283058)
Settings: primary human foreskin fibroblasts; actives raise or lower the signal
Calls of active or inactive are those of the source. The calls were made as follows: active = hit-call score of the fitted dose curve at least 0.9, where 1 is the maximum; inactive = score below 0.9.
Classes to choose from: active, inactive

Query block: Can you look up the reported call for Oc1cccc2ccccc12 for me?
Result block: inactive

Query block: Can you look up the reported call for Cc1c(C(N)=O)cc([N+](=O)[O-])cc1[N+](=O)[O-] for me?
Result block: inactive

Query block: Can you look up the reported call for OC(C(F)(F)F)(C(F)(F)F)C(O)(C(F)(F)F)C(F)(F)F for me?
Result block: inactive

Query block: Can you look up the reported call for Cc1cc(-n2nc3ccc(Cl)cc3n2)c(O)c(C(C)(C)C)c1 for me?
Result block: inactive

Query block: Can you look up the reported call for Cc1cccnc1 for me?
Result block: inactive

###

Molecular target: Cellular tumor antigen p53 (Homo sapiens) (UniProt P04637)
Assay: TOX21_p53_BLA_p2_ratio: Tox21 HCT-116 p53 Agonism Beta-lactamase Assay, Ratio, Phase 2 (AID 2283592)
Inconclusive results are not listed. The source made the active and inactive calls. How the source made its calls: active means hit-call score of the fitted dose curve at least 0.9, where 1 is the maximum; inconclusive means response in the unintended direction; inactive means score below 0.9.
ENDPOINT: AC50

Below, each entry is followed by its recorded AC50 result.
[
  {
    "MOLECULE": "O=c1[nH]c(=O)n([C@H]2C[C@H](O)[C@@H](CO)O2)cc1I",
    "AC50": "inactive"
  },
  {
    "MOLECULE": "CN1[C@@H]2CC[C@H]1CC(OC(=O)C(O)c1ccccc1)C2 (stereo not given in full)",
    "AC50": "inactive"
  },
  {
    "MOLECULE": "C=CC(OCC)OCC",
    "AC50": "inactive"
  },
  {
    "MOLECULE": "CC=C(C)C#N",
    "AC50": "inactive"
  },
  {
    "MOLECULE": "COc1cc(/C=C/C(=O)O[C@H]2CC[C@]34C[C@]35CC[C@]3(C)[C@@H]([C@H](C)CCC=C(C)C)CC[C@@]3(C)[C@@H]5CC[C@H]4C2(C)C)ccc1O",
    "AC50": "inactive"
  },
  {
    "MOLECULE": "O=C(NCC1CCCCN1)c1cc(OCC(F)(F)F)ccc1OCC(F)(F)F (stereo not given)",
    "AC50": "inactive"
  },
  {
    "MOLECULE": "CCCCOc1cc(C(=O)OCCN(CC)CC)ccc1N",
    "AC50": "inactive"
  },
  {
    "MOLECULE": "CCCN(CCC)CCc1cccc2c1CC(=O)N2",
    "AC50": "inactive"
  },
  {
    "MOLECULE": "Cc1ccc([N+](=O)[O-])c(N)c1",
    "AC50": "inactive"
  },
  {
    "MOLECULE": "C[C@H](Cc1ccc(O)c(O)c1)[C@@H](C)Cc1ccc(O)c(O)c1",
    "AC50": "inactive"
  }
]

For every item below, please supply its AC50.
1. C/C(=N\O)c1ccc(OCC(=O)N2CCCCC2)cc1
2. CC1=C(C(=O)OC(C)C)C(c2cccc([N+](=O)[O-])c2)C(C(=O)OC2CN(C(c3ccccc3)c3ccccc3)C2)=C(N)N1 (stereo not given)
3. O=C(Oc1ccccc1)Oc1ccccc1
4. CC(=O)[C@@]1(O)CC[C@H]2[C@@H]3C=C(Cl)C4=CC(=O)CC[C@]4(C)[C@H]3CC[C@@]21C

Result block:
inactive
18.3 µM (active)
inactive
37 µM (active)

###

Experiment: ATG_M_06_CIS: Attagene CIS-FACTORIAL HepG2 Assay for M06 Transcription Factor (Internal Marker) (AID 2282950)
Conditions: HepG2 Attagene CIS-FACTORIAL M06 internal marker reporter; actives raise or lower the signal
Activity calls are given as the source filed them. Rule for the calls: active = hit-call score of the fitted dose curve at least 0.9, where 1 is the maximum; inactive = score below 0.9.
ENDPOINT: outcome

Below, each entry is followed by its recorded outcome result.
[
  {
    "MOLECULE": "C=CCOC(=O)C(=C)C",
    "TEST RESULT": "inactive"
  },
  {
    "MOLECULE": "CCO[Si](CCCN)(OCC)OCC",
    "TEST RESULT": "inactive"
  },
  {
    "MOLECULE": "c1cc[c]([Bi]([c]2ccccc2)[c]2ccccc2)cc1",
    "TEST RESULT": "inactive"
  },
  {
    "MOLECULE": "O=C(c1ccccc1)c1ccccc1O",
    "TEST RESULT": "inactive"
  },
  {
    "MOLECULE": "CC(=O)OC(C)(C)Cc1ccccc1",
    "TEST RESULT": "inactive"
  },
  {
    "MOLECULE": "CCO[Si](OCC)(OCC)c1ccccc1",
    "TEST RESULT": "inactive"
  }
]

For every item below, please supply its outcome.
1. Oc1ccc(Cl)cc1C1CCCC1
2. CO[Si](CCCNCCN)(OC)OC
3. O=C1NC(=O)C2CC=CCC12 (stereo not given)
4. c1ccc2c(c1)Oc1ccccc1S2
5. COC(=O)c1ccccc1
6. C=C(C)C(=O)OCC1CCCO1 (stereo not given)
7. O=C(O)Cc1c[nH]c2ccccc12
8. OCCc1ccccn1

Result block:
1. inactive
2. inactive
3. inactive
4. inactive
5. inactive
6. inactive
7. inactive
8. inactive

For every item below, please supply its outcome.
1. Clc1ccc(Sc2cc(Cl)c(Cl)cc2Cl)cc1
2. COC(=O)/C=C\C(=O)OC

Result block:
1: inactive; 2: inactive
